# target_entity: T1, nSR100 (Mus musculus, UniProt Q8BKA3)
# T1 construct: host or cells: mouse N2A cells
# T1 sequence (Q8BKA3 1-608): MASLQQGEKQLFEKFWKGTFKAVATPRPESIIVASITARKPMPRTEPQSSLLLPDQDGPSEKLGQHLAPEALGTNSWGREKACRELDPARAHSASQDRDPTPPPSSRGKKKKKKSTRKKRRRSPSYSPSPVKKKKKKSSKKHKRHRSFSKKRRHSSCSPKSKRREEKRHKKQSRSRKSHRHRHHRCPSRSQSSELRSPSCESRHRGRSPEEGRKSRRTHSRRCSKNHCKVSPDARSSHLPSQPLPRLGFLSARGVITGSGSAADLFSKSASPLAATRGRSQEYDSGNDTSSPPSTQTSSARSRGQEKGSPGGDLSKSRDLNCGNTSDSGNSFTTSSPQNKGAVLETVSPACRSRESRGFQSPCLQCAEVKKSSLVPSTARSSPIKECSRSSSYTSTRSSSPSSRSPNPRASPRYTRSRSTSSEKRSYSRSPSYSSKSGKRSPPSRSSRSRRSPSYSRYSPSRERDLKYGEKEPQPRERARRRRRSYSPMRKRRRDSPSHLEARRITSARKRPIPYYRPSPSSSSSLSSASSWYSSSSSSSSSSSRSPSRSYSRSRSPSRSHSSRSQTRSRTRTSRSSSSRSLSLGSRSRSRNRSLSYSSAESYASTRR
# assay_comment: AP-MS nSR100 interaction partners from mouse N2A cells (Table 5)
# Format: binding
# condition_parameters: bait Srrm4
quantity_name: AvgP (average of the SAINT scores)

| molecule | value_observed |
| --- | --- |
| P00761 (protein, UniProt P00761 1-231, looked up, full-length) FPTDDDDKIVGGYTCAANSIPYQVSLNSGSHFCGGSLINSQWVVSAAHCYKSRIQVRLGEHNIDVLEGNEQFINAAKIITHPNFNGNTLDNDIMLIKLSSPATLNSRVATVSLPRSCAAAGTECLISGWGNTKSSGSSYPSLLQCLKAPVLSDSSCKSSYPGQITGNMICVGFLEGGKDSCQGDSGGPVVCNGQLQGIVSWGYGCAQKNKPGVYTKVCNYVNWIQQTIAAN | 1 |
| Bcas2 (protein, UniProt Q9D287 2-225, looked up) Pre-mRNA-splicing factor SPF27: AGTGLVAGEVVVDALPYFDQGYEAPGVREAAAALVEEETRRYRPTKNYLSYLTAPDYSAFETDIMRNEFERLAARQPIELLSMKRYELPAPSSGQKNDITAWQECVNNSMAQLEHQAVRIENLELMSQHGCNAWKVYNENLVHMIEHAQKELQKLRKHIQDLNWQRKNMQLTAGSKLREMESNWVSLVSKNYEIERTIVQLENEIYQIKQQHGEANKENIRQDF | 0.97 |
